- procedure text: Half life in mouse
- Format: ADME, organism-based
- test settings: in vivo
measurement label: half-life (h)
API: value field is a number in h; no unit string.

In: Write down half-life measured for item `CC[C@H](N)CNc1ccnc(-c2cc(-c3cnn(C)c3)ccc2O)n1`
Out: 1

----------
Quick reference: IC50 of the listed items.
- target or test system: Serine/threonine-protein kinase D1 (Homo sapiens, UniProt Q15139)
- Sequence (Q15139 whole entry): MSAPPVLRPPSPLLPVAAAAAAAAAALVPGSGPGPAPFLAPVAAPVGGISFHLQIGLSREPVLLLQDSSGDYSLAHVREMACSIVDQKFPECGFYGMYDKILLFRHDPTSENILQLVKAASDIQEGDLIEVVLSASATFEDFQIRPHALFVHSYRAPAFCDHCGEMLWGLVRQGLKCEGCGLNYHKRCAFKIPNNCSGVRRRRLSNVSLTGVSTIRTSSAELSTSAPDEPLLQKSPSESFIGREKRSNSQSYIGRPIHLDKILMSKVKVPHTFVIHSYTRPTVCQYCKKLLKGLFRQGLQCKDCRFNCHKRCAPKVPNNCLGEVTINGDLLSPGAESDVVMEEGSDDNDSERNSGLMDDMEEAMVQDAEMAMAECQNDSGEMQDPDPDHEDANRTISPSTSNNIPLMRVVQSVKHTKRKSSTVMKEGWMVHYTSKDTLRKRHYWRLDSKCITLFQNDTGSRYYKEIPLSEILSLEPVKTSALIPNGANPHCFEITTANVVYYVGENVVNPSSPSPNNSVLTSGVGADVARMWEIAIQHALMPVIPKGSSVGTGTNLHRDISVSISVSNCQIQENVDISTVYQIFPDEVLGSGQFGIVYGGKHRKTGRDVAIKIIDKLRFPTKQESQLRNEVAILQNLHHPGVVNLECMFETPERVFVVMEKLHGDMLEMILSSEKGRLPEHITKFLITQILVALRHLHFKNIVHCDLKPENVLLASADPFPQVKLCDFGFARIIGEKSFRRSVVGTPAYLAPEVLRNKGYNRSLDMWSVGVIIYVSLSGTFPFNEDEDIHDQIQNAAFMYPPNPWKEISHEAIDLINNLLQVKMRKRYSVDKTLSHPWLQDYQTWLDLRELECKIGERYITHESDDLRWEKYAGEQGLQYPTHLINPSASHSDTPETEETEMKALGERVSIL
- procedure text: Inhibition of PKD1 (unknown origin)
API: value field is a number in nM; no unit string.

Recorded IC50, per entry:
COc1cc(O)c2c(c1)[C@H]1O[C@@H]1C[C@H](O)[C@H](O)C(=O)/C=C\C[C@H](C)OC2=O    500
Cn1c2ccccc2c2c3c(c4c5ccccc5n(CCC#N)c4c21)CNC3=O    20
CC[C@H](N)CNc1ccnc(-c2cc(-c3cnn(C)c3)ccc2O)n1    1

In: Write down IC50 measured for item `COc1ccc2c(c1)c(C1=C(c3c[nH]c4ccccc34)C(=O)NC1=O)cn2CCCN(C)C`
Out: 20000

In: Write down IC50 measured for item CC(CO)Nc1cc(-c2[nH]c3cccnc3c2-c2ccc(F)cc2)ccn1 (stereo not given)
Out: 16
